IC50 listing for selected compounds.
target: S. cerevisiae Pma1 (Saccharomyces cerevisiae); assay: ATP hydrolysis assay, S. cerevisiae plasma membranes containing Pma1; assay type: biochemical; set-up: containing the full-length cDNA of the S. cerevisiae plasma membrane H^+-ATPase isoform PMA1; made in house; host or cells: S. cerevisiae RS72 (PMA1 cDNA under PMA1 promoter); also wild-type S. cerevisiae ATCC 9763; settings: ATP hydrolysis, S. cerevisiae Pma1; read-out: IC50 for Pma1
Sequence (P05030 whole entry, canonical isoform): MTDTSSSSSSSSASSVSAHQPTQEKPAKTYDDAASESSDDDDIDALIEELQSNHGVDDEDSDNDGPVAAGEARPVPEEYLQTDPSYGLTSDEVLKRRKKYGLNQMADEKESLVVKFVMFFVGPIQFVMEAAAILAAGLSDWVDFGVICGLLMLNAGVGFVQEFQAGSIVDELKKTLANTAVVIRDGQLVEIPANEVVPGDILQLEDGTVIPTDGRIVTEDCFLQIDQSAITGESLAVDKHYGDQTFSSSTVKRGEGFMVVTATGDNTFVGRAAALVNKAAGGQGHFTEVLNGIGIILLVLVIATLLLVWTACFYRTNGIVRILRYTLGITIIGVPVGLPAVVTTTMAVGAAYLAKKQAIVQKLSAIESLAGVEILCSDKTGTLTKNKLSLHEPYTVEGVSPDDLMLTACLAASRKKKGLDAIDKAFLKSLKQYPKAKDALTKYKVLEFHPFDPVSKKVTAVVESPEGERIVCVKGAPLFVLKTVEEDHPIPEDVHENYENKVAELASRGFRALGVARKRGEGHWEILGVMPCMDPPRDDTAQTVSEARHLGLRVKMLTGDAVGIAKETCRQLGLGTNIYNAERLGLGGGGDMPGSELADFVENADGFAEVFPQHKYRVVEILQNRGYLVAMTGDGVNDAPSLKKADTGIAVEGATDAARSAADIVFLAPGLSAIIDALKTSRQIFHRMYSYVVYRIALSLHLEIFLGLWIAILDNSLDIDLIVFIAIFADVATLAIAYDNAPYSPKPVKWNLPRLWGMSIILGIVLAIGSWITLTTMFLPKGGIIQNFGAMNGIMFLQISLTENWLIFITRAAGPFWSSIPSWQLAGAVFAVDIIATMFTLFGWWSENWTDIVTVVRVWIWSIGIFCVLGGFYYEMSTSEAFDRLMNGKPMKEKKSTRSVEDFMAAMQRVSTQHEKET

Worked examples follow.
Compound: CN1CCc2c(sc3c2C(=O)NC(c2ccc(-c4cccc(Cl)c4)o2)N3)C1 (stereo not shown) [Compound 13]
IC50: < 25 µM
//
Compound: CCOc1ccc2nc3cc(NC(=O)c4cccc(Br)c4)ccc3c(N)c2c1 [Compound 5]
IC50: < 25 µM
//
Compound: CCc1nc2sc3c(NCCCN(C)C)ncnc3c2c2c1CCCC2 [Compound 17]
IC50: 107 µM

Let's switch to this compound now.
Req: I would be grateful if you could share the reported IC50 for Oc1cccc(Nc2nc(-c3ccc(Cl)c(Cl)c3)cs2)c1 [Compound 7] .
Resp: < 25 µM
